Target: T1, RBFOX1 RRM RbFoxmut (Fox-RRM*) (Homo sapiens, UniProt Q9NWB1 109-208, R118D;E147R;N151S;E152T)
T1 sequence: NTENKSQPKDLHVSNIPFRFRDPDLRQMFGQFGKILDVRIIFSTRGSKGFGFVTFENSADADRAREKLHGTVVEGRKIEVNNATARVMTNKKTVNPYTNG
Experiment: EMSA; HiTS-Eq, 1 nM pool, 10 min; buffer printed only for the single-RNA assays: 10 mM Tris pH 7.5, 150 mM NaCl, 3.4 mM EDTA, 0.001% NP-40, 30 C
Details: tags: His6 N-terminal (pET28a); label: 5' 32P
Over roughly 16,000 sequences, “ka relative to ugcaugu” has its median near 0.096; the highest 2% begin near 0.35. This is one part of a sample in which the highest values are shown more often than they occur.
Observable: binding signal

**Query** Need binding signal of CCUGGUG (DNA:RNA) RNA: GGGAGACCGGAAUUCAGAUUGUCCCCUGGUGUUAAAUCCCGUCGUAGCCACCA DNA 1: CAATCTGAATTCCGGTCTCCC DNA 2: TGGTGGCTACGACGGGATT , thanks.
**Result** 0.109 KA relative to UGCAUGU

**Query** Name the recorded binding signal for GUUAACC (DNA:RNA) RNA: GGGAGACCGGAAUUCAGAUUGUCCGUUAACCUUAAAUCCCGUCGUAGCCACCA DNA 1: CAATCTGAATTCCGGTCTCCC DNA 2: TGGTGGCTACGACGGGATT .
**Result** 0.0736 KA relative to UGCAUGU

**Query** Query: binding signal; subject: UGGCUGU (DNA:RNA) RNA: GGGAGACCGGAAUUCAGAUUGUCCUGGCUGUUUAAAUCCCGUCGUAGCCACCA DNA 1: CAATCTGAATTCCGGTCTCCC DNA 2: TGGTGGCTACGACGGGATT
**Result** 0.299 KA relative to UGCAUGU

**Query** GET /values?readout=binding signal&item= AUUGUGA (DNA:RNA) RNA: GGGAGACCGGAAUUCAGAUUGUCCAUUGUGAUUAAAUCCCGUCGUAGCCACCA DNA 1: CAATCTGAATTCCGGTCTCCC DNA 2: TGGTGGCTACGACGGGATT
**Result** 0.0934 KA relative to UGCAUGU

**Query** Record request: binding signal value, item AUAGGAG (DNA:RNA) RNA: GGGAGACCGGAAUUCAGAUUGUCCAUAGGAGUUAAAUCCCGUCGUAGCCACCA DNA 1: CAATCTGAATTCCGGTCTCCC DNA 2: TGGTGGCTACGACGGGATT
**Result** 0.097 KA relative to UGCAUGU

**Query** What measured binding signal goes with UGGGGUG (DNA:RNA) RNA: GGGAGACCGGAAUUCAGAUUGUCCUGGGGUGUUAAAUCCCGUCGUAGCCACCA DNA 1: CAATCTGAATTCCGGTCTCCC DNA 2: TGGTGGCTACGACGGGATT ?
**Result** 0.38 KA relative to UGCAUGU

**Query** Give the measured binding signal of AUCUUAC (DNA:RNA) RNA: GGGAGACCGGAAUUCAGAUUGUCCAUCUUACUUAAAUCCCGUCGUAGCCACCA DNA 1: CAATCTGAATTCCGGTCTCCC DNA 2: TGGTGGCTACGACGGGATT .
**Result** 0.12 KA relative to UGCAUGU

**Query** GET /values?readout=binding signal&item= CUGGGUG (DNA:RNA) RNA: GGGAGACCGGAAUUCAGAUUGUCCCUGGGUGUUAAAUCCCGUCGUAGCCACCA DNA 1: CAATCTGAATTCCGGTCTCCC DNA 2: TGGTGGCTACGACGGGATT
**Result** 0.347 KA relative to UGCAUGU
